test-name: Methylene blue experiment for H2S release in PBS buffer in presence of cysteine or GSH
Type: physicochemical
measurement-context: PBS buffer pH 7.4; donor 150 μM; 1.5 mM GSH; experimental period 3 hours
Entries whose GSH Peaking time is below 40 min take Criterion met; entries at or above 40 min take Criterion not met.

Past entries and their recorded results:
{"columns": ["molecule", "category"],
 "data": [
  ["CCC(=O)SNC(=O)c1ccccc1", "Criterion met"],
  ["CC(C)(C)C(=O)SNC(=O)c1ccccc1", "Criterion not met"],
  ["O=C(NSC(=O)c1ccccc1)c1cccc(Cl)c1", "Criterion met"],
  ["O=C(NSC(=O)C1CCCC1)c1ccccc1", "Criterion met"],
  ["O=C(Cc1ccccc1)SNC(=O)c1ccccc1", "Criterion not met"]
]}

Asked: Check if GSH Peaking time falls below 40 min for O=C(NSC(=O)c1ccc(C(F)(F)F)cc1)c1ccccc1 .
Given back: Criterion met

Asked: Strictly below 40 min: is that where GSH Peaking time of CC(C)C(=O)SNC(=O)c1ccccc1 sits?
Given back: Criterion not met

Asked: Is GSH Peaking time strictly under 40 min for the entry COC(=O)C(CSSC(=O)c1ccccc1)NC(=O)c1ccccc1 (centres unmarked) ?
Given back: Criterion not met

Asked: Strictly below 40 min: is that where GSH Peaking time of CC(C(=O)SNC(=O)c1ccccc1)c1ccccc1 (centres unmarked) sits?
Given back: Criterion not met

Asked: Does this molecule meet the criterion GSH Peaking time < 40 min? COc1cccc(C(=O)SNC(=O)c2ccccc2)c1
Given back: Criterion met

Asked: Consider the molecule O=C(NSC(=O)c1ccccc1)Nc1ccccc1 . Is its GSH Peaking time strictly less than 40 min?
Given back: Criterion met

Asked: Is GSH Peaking time of Cc1ccccc1C(=O)SNC(=O)c1ccccc1 strictly below 40 min?
Given back: Criterion not met

Asked: API: query returns whether the molecule falls strictly under 40 min in GSH Peaking time. Query: Cc1ccccc1C(=O)NSC(=O)c1ccccc1
Given back: Criterion met

Asked: Quick check: GSH Peaking time of O=C(NSC(=O)c1ccccc1)c1ccc(F)cc1 under 40 min?
Given back: Criterion not met

Asked: Record Cc1ccc(C(=O)SNC(=O)c2ccccc2)cc1 : is its GSH Peaking time strictly below 40 min?
Given back: Criterion met

Asked: Input CCC(=O)NSC(=O)c1ccccc1 ; condition: GSH Peaking time strictly below 40 min. Does it hold?
Given back: Criterion not met

Asked: Determine if O=C(NSC(=O)c1cccc(Cl)c1)c1ccccc1 shows GSH Peaking time strictly lower than 40 min.
Given back: Criterion met

====

test-name: Methylene blue experiment for H2S release in PBS buffer in presence of cysteine or GSH
Format: physicochemical
measurement-context: PBS buffer pH 7.4; donor 150 μM; 1.5 mM cysteine
Param threshold (50 µM) applies to Cys [H2S] at peaking time; output MET when value >= threshold, NOT MET when value < threshold.

Asked: Assess whether reported Cys [H2S] at peaking time for COC(=O)C(CSSC(=O)c1ccccc1)NC(=O)c1ccccc1 (stereo not shown) sits at 50 µM or higher.
Given back: NOT MET

Asked: I'd appreciate it if you could say whether CC(=O)NSC(=O)c1ccccc1 has Cys [H2S] at peaking time at least equal to 50 µM.
Given back: MET

====

test-name: Methylene blue experiment for H2S release in PBS buffer in presence of cysteine or GSH
Assay type: physicochemical
measurement-context: PBS buffer pH 7.4; donor 150 μM; 1.5 mM cysteine
Threshold check on Cys [H2S] at peaking time: strictly below 100 µM is label 1; on or above 100 µM is label 0.

// known answers, use as guide
{"columns": ["compound", "category"],
 "data": [
  ["O=C(Cc1ccccc1)SNC(=O)c1ccccc1 [Compound 30]", "label 0"],
  ["COc1cccc(C(=O)SNC(=O)c2ccccc2)c1 [Compound 10]", "label 0"],
  ["O=C(NSC(=O)c1ccccc1)c1ccc(F)cc1 [Compound 26]", "label 0"],
  ["O=C(NSC(=O)c1ccccc1)c1cccc(Cl)c1 [Compound 25]", "label 1"]
]}

Asked: Criterion: Cys [H2S] at peaking time strictly below 100 µM. Is it met by O=C(NSC(=O)C1CCCCC1)c1ccccc1 [Compound 16] ?
Given back: label 1

Asked: # strict comparison: is reported Cys [H2S] at peaking time < 100 µM? input = CC(=O)SNC(=O)c1ccccc1 [Compound 19]
Given back: label 0
